# Lookup of reported Inhibition keyed by entry
System: Plasmodium falciparum
Experiment: GSK_TCMDC: Inhibition of Plasmodium falciparum 3D7 in whole red blood cells, using parasite LDH activity as an index of growth. Test compounds present at 2uM
Type: functional

{"columns": ["Compound", "Reading unit", "Inhibition"],
 "data": [
  ["CCCCCCCCNCc1c(O)ccc2ccccc12.Cl", "%", 99],
  ["Cc1cccc2nc(-c3ccc(-c4ccc(NC(=O)NCc5cccc(F)c5)cc4)s3)[nH]c12", "%", 100],
  ["COc1cc(C(=O)N2N=C(c3c(-c4ccccc4)c4cc(Br)ccc4[nH]c3=O)CC2c2cccc([N+](=O)[O-])c2)cc(OC)c1OC (stereo not drawn)", "%", 93],
  ["Cc1cc(N[C@@H](CC(C)C)C(=O)NCc2cccs2)nc(NCCc2ccccc2)n1.O=C(O)C(F)(F)F", "%", 94],
  ["CCCCc1nc2nc(N)nc(N)c2cc1CCC", "%", 97],
  ["Br.CC1(C)NC(N)=NC(=N)N1OCCCOc1cccc2ccccc12", "%", 95],
  ["CC(C)Oc1ccccc1-c1csc(C(=O)NCC2CCN(Cc3ccc(C(C)(C)C)cc3)C2)c1.O=C(O)C(F)(F)F (stereo not drawn)", "%", 90],
  ["Cc1cc(OCC2CCN(c3ncc(C(=O)Nc4ccccc4)cc3Cl)CC2)ccc1F", "%", 91],
  ["Clc1cc(Nc2ccnc3ccc(Br)cc23)ccc1Oc1ccc(Cl)c2ccccc12", "%", 99],
  ["CC(C)CCNC(=N)Nc1ccc(OCCCOc2ccc(NC(=N)NCCC(C)C)cc2)cc1", "%", 100],
  ["Cl.O=C(Nc1ccccc1Br)N[C@@H]1CCN(c2ccnc3ccccc23)C1", "%", 91],
  ["O=C(NCC1CCC(C(=O)NCc2cccc(C(F)(F)F)c2)CC1)c1ccc(O)c(-c2ccc(Cl)c(Cl)c2)c1 (stereo not drawn)", "%", 98],
  ["Cc1ccc(O)cc1Nc1ccnc2cc(-c3ccc(CN4CCCCC4)o3)ccc12", "%", 100]
]}
